Collected kon values appear next to each entry.
Target: T1, soluble FGFR1c receptor protein (human, UniProt P11362 141-376)
T1 sequence: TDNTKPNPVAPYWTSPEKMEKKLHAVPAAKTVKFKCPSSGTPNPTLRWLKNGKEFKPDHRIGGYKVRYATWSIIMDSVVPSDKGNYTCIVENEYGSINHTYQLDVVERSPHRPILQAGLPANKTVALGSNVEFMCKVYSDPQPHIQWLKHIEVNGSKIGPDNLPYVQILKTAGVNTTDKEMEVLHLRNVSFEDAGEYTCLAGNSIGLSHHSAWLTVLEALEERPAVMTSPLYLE
Experiment: BLI Octet RED96, antibody on anti-hIgG Fc tip
Lab book: enter the figure in M⁻¹ s⁻¹, no units written.

{"columns": ["Binder", "kon (M⁻¹ s⁻¹)"],
 "data": [
  ["Vh1 combined with the VL of Ab15 (antibody, V domains shown, captured on anti-human IgG Fc tips) VH: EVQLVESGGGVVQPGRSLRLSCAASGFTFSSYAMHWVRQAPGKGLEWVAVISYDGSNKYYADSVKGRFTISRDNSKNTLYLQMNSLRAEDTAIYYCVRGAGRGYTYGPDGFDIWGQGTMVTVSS VL: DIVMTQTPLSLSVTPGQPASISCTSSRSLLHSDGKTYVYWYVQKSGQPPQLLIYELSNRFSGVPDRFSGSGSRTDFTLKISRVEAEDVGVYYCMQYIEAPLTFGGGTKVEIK", 47500]
]}

Here's the next entry for you.
Ask: If you can, please state the reported kon value of Vk6 combined with the VH of Ab15 (antibody, V domains shown, captured on anti-human IgG Fc tips) VH: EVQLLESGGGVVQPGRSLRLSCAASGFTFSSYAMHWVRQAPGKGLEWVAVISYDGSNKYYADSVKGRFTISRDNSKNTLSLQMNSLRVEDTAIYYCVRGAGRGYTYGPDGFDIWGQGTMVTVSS VL: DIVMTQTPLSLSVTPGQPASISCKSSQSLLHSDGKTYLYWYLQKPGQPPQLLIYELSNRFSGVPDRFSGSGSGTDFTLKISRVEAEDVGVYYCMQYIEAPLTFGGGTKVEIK .
Result: 53400
